TARGET_OF_ASSAY: T1, recombinant human TL1A (human, UniProt O95150 71-251)
T1 chain: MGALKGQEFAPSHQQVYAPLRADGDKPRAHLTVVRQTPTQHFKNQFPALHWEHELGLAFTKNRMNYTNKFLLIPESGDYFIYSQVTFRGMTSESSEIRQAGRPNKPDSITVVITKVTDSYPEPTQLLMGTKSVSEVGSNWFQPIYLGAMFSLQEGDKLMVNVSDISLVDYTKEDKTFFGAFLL
ASSAY_REMARKS: cell-based or functional assay
PARAMETER_MEASURED: TF-1 NF-κB reporter cell bioassay, Bioactivity relative to TL1A-0002 (fold)

- TL1A-0266 (antibody, human IgG1, kappa, V domains shown, human IgG1 effector-function-minimized/kappa) VH: QVQLVQSGAEVKKPGASVKVSCKASGYDYTYYGISWVRQAPGQGLEWMGWISTYNTNTHYAPSLQGRVTMTTDTSTSTAYMELRSLRSDDTAVYYCARESYYGSGAFRGGMDVWGQGTTVTVSS VL: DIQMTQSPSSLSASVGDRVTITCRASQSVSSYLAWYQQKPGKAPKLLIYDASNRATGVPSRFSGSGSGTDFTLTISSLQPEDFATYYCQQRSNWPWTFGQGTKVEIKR: 1.1
